assay info: folding stability dG unfold from chymotrypsin proteolysis; higher = more stable
measured property: folding stability dG unfold (kcal/mol)
Respond numerically; units are kcal/mol and should not be typed.

Exam item: // folding stability dG unfold lookup, key: SSWEKLSTLTLPSTGLTVTFYYDPSTNSTAVKVTDGAGPELSEKVLSDDETFTLPDGVSIKLPKGAEPASSA [r9_340_JUSTAS]
Marked response: 1.45

Exam item: Look up folding stability dG unfold: SAGGSAGPLERKVIVRTAPYTSPEEGEAYAEETKLAIASKLPESEKVTVEVTWDPETNTVTATIVSSAGGSA [r15_981_JUSTAS]
Marked response: 1.14

Exam item: What value of folding stability dG unfold has been reported for the following sequence? SAGGSAGGSAGVVLTEDGYAVATVTVTTTTVEYDEETGEWKETTTTTTETLTVVVPVGATSAGGSAGGSAGG [r17_527_TrROS_Hall]
Marked response: 1.6

Exam item: # lookup: folding stability dG unfold of SAGKLKPGDPVKIKIEIERDPGNGMVRVTYKIEFKDGMYVTMIIPPNGPIHVEIFNPDDGKEREETIPLSAG [r5_55_TrROS]
Marked response: 2.67

Exam item: Would you mind telling me what folding stability dG unfold value was observed for SAGGSAGGSAGGKKYIIKNKKTNKYIEVDVIEKDGKLYVYDKKTGKVHEVSLKDLEIVPSAGGSAGGSAGGS [r10_28_TrROS_Hall] ?
Marked response: 2.56

Exam item: # get_value(readout='folding stability dG unfold', item= SAGGSAGGSAGGYVGPDQPVIIVEVKVKGARIGKDGKIYYDFEVERIEIREVEEGDNLGSAGGSAGGSAGGS [r10_826_TrMRF] )
Marked response: 1.9

---

assay info: folding stability dG unfold (combined trypsin and chymotrypsin); higher = more stable
Entry flag: 1 if folding stability dG unfold reaches 3 kcal/mol; -1 if it does not.

Exam item: Form field: folding stability dG unfold at least 3 kcal/mol? Entry: SMKIVEVEVFEDPETGKLVVIVKLDGEEVVEVEEGEKVEIEVEPGDTLLVFVVDAETGEIKEEKEIKVEESA [r9_209_TrROS_Hall]
Marked response: -1

Exam item: Could you verify whether the entry SAGNIMVQVEPDPGGTVKVEIMFMIPLPNGWPIMIQIEWEVRVDEDGEPELKMPIEIFFSEEALDKGFSAGG [r19_63_TrROS] shows folding stability dG unfold of no less than 3 kcal/mol?
Marked response: -1

Exam item: Could you tell me if the measured folding stability dG unfold of SAGGSAGGSAGKIKIEKDKNGNYRVILKNGKVYEFKSIEEAKEELKKKFPNIKEIEIVKTSAGGSAGGSAGG [r11_806_TrROS_Hall] reaches 3 kcal/mol or more?
Marked response: 1

Exam item: Assess whether reported folding stability dG unfold for SAGGSAGGSAGGKRTLLIRVPPGASVEQVLEELKRLLPPGAKITVELDPETRTLRVTIDSAGGSAGGSAGGS [r10_163_TrROS_Hall] sits at 3 kcal/mol or higher.
Marked response: 1

Exam item: For this sequence, is measured folding stability dG unfold 3 kcal/mol or higher? SAGGSAGSGFEEEAAAAFAASAGAMTLTVVEREPDSYTVATVTRTPGTGAPTVTVTTLSPETLAAASAGGSA [r15_156_JUSTAS]
Marked response: -1

---

assay info: folding stability dG unfold from trypsin proteolysis; higher = more stable
What folding stability dG unfold was measured for each of the following?
Record the value in kcal/mol, omitting the unit from your answer.

Exam item: Which folding stability dG unfold value is on record for SAGGSAGGSSPPVTVIPLKIPVDPDTTPEEIKEELAAKVPPNSSVKVDTKPGSGTVNVTVTISSAGGSAGGS [r12_12_JUSTAS] ?
Marked response: 1.12

Exam item: Could you tell me which folding stability dG unfold is on file for SAIKIEEIKDVNPENKNIRIKIEMPGGPHEIPIPAKSEMDVEEALDLILDWFERHFPPGHKMRIEEIEISAG [r14_422_TrROS] ?
Marked response: 0.886

Exam item: Requested read-out: folding stability dG unfold. Entry: SAGGAPSTFTSTSPEGETTVTTTTTYYPETGTTTTTTTTTNPATGTSTTTTTTTPVAPPQPPLLEAGASAGG [r13_694_JUSTAS]
Marked response: 0.827

Exam item: Please report the recorded folding stability dG unfold for SAPDVGPEERARRLIEEARAEVEAARAAGDPSVPRRVVFDELAVAHPEEAARILEEAARLGIPVEVRPPSAG [r14_908_JUSTAS] .
Marked response: 0.252

Exam item: Requested field: folding stability dG unfold. Item: SAGGTAEEIVEALKEAGIPVLSIEPNSDGTYTITVGGPDGTPFTIEISSANPADLAALKEAIPEEVSSAGGS [r16_821_TrMRF]
Marked response: 3.35

Exam item: Recorded folding stability dG unfold of SAGGSAGGSAGGISPSANVKLVAVDPERGLVVAVAKDPNSGSVSVVVFDANGNSSILPASAGGSAGGSAGGS [r10_450_TrMRF] , please.
Marked response: -0.317

Exam item: Look up folding stability dG unfold for this sequence: SAGGSAGGSAPPNDWYVGIMEITININIDADQLPPPLREKFEKNGIKEIRITFVSVFPPDDFSAGGSAGGSA [r18_127_TrROS]
Marked response: 2.76

Exam item: Which folding stability dG unfold value is on record for SAGGSAGGSAHKITITLPNGNPPEIVVEFETEEEAKEKAEEIIKKLEEEGYPKENLTVTIEKESAGGSAGGS [r12_295_JUSTAS] ?
Marked response: 1.87

Exam item: Given SAGWRRIPPGRPIRIRLKGNGEEITIPIPEGAEVEPDPDNNNVMIWFREDGKEWSMNFKNGRIDDIEPVSAG [r5_22_TrROS] , state its recorded folding stability dG unfold.
Marked response: -0.194

Exam item: What does the record list as folding stability dG unfold for SAGGSAGGSAGGSMKLNITVTLPDGTPITLTFPVDKIEEILKEAGLENISPELITKIEPISAGGSAGGSAGG [r7_745_JUSTAS] ?
Marked response: 1.33

Exam item: Which value of folding stability dG unfold has been reported for SAGGYKITIPAMFDTPEDALDQVREIARSLGYRITDIKNVEVHKHEDNGMVMVEATIKIEPLPKGQLSAGGS [r16_155_TrROS] in the records?
Marked response: 1.77

Exam item: Recorded folding stability dG unfold for SKVLELLKELAKKLGATITEVKVEKLEDGTVKVTATITVTYLDKNGKPVKTETLTLTITVKNGKITEIKLSA [r9_519_TrROS_Hall] , please?
Marked response: 4.66

Exam item: Which folding stability dG unfold is listed for SAGGSAGGSAGGPANLNDEPVLLIPVSSELLKLIPAEKLVELAAKLASPNVKRIYVLAPESAGGSAGGSAGG [r7_487_TrMRF] ?
Marked response: 0.12

Exam item: Recorded folding stability dG unfold for SAGGSSPEELAEKAINEAMEKFGFKEISEIKIQKEDDGVRITIRMPNNGYTIEIDYEDGKITEIQPWSAGGS [r16_171_TrROS] , please?
Marked response: 1.53

Exam item: Param item = SAMKITEITYDKETNTITITVEIKLPPGVKKIKLKLFIDGAEIEEITMEVDEETGTVRITLKIRIPKDASAG [r14_244_TrROS_Hall] ; retrieve measured folding stability dG unfold.
Marked response: 4.9

Exam item: What value of folding stability dG unfold has been recorded for this entry: SAGGSAGGSAGGITPEEIEKIREAPLPNGAPIKDVFVEGDYAVVLFETEPDLYLIVIPNKSAGGSAGGSAGG [r7_995_TrMRF]
Marked response: -0.121

Exam item: folding stability dG unfold for SAGGSAGGSAGKIEIDPSKPALVRVRLVPENGIPREIVVEAGDLSKLLPENFKVLSIELGSAGGSAGGSAGG [r17_449_TrMRF] ?
Marked response: 0.295

Exam item: I am curious: what folding stability dG unfold value has been reported for SAGGLLVADEAGVPLSPVPPVPPIPVQVTFPDGTKVTIEYYPGLNEVKVEYEGDDPAKVAEIVKEILKSAGG [r13_701_JUSTAS] ?
Marked response: 0.146

Exam item: What folding stability dG unfold value was documented for this sequence, SAGGSAGGSEKKPPEVTVVIKLPKGTSLEELLAALPPGAKAEIVEVVKVDEEKNEVYVKIRLTSAGGSAGGS [r12_469_TrROS_Hall] ?
Marked response: 2.26

Exam item: Which folding stability dG unfold is listed for SAGGWYIRIKEIERNNDGVNIDIQIPDPDDPEFFENIAENLAQKLGMPKENIKIRIEPTPMPPDPEEPSAGG [r13_430_TrROS] ?
Marked response: 0.248

---

assay info: folding stability dG unfold from trypsin proteolysis; higher = more stable
Please respond with reported folding stability dG unfold for every item in the list.
Report the value in kJ/mol with no unit label.

Exam item: Record request: folding stability dG unfold value, item SAGGSAGGSAGGKVAIVTASPEKAKEIAKKAGIKDVIIIPKNKPELLGPNVDKVILVAEKSAGGSAGGSAGG [r7_381_TrMRF]
Marked response: -2.63

Exam item: For the sequence SAGGSAKVKIYLIKLPPNGNPLEVIKKVKEKGGNAIIVSGPGLHAVIEADEPEEAAKKAKEILEKLSAGGSA [r15_546_TrMRF] , what folding stability dG unfold is on record?
Marked response: 1.51

Exam item: Item under review: SAGGSAGGSAKPKVKIEVEERRVLTLDPETGELKEERVLVVRIEVEPGMSEEEAKKLLEELASAGGSAGGSA [r18_438_TrROS_Hall] . Reported folding stability dG unfold?
Marked response: 7.1

Exam item: Looking for the measured folding stability dG unfold of SAKKTITITKITLTLFNKDGKPVATAEITSIEITYDPKTNTFTITATVKVTLPNGKTFTFKLTITLPVKSAG [r14_609_TrROS_Hall] , can you help?
Marked response: 16.4

Exam item: Need folding stability dG unfold of SAKEEYYKVRIYFPETNEVVEIEAKSEEEALEALKKLLNEPNIVKIEIEKVEVEEEPEEKEYSEEELKSSAG [r14_747_TrROS_Hall] , thanks.
Marked response: 8.46

Exam item: So what's the measured folding stability dG unfold for this one? SAGGSAGGSASTITITTPSGEKVKVTLTSLPTPTTLATITVTSTGKTYTIVIAPDGTITLASAGGSAGGSAG [r3_15_JUSTAS]
Marked response: 14.2
